target: Ste12 (UniProt P13574); assay: PBM E-score (8-mer binding enrichment) (E-score (-0.5 to 0.5)); higher = stronger / more preferred TF binding; details: protein concentration: 200 nM; construct: GST-DNA-binding domain
Sequence (P13574 whole entry, the tested form may be a part): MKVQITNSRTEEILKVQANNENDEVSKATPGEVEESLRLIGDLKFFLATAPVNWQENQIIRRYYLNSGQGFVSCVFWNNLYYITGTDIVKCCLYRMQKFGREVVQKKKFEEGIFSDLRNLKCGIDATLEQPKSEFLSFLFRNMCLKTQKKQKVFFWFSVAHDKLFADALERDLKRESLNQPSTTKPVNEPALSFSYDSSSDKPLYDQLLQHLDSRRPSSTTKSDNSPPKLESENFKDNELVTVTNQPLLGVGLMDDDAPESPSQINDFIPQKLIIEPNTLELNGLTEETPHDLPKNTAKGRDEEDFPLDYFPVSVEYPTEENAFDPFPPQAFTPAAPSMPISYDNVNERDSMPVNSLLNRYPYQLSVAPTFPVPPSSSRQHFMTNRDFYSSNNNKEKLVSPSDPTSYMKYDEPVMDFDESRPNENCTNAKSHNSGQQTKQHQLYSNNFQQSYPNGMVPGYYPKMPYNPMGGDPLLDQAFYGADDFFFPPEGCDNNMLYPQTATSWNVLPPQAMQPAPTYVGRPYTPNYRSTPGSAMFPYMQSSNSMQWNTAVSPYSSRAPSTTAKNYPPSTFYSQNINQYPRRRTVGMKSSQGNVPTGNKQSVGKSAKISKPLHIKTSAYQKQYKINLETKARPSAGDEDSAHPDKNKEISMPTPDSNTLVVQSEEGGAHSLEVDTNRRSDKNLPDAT
Whole data set: some 33,000 sequences, median “E-score (-0.5 to 0.5)” near -0.01, cut for the highest 2% near 0.26. The list comes from a sample in which the highest values are over-represented; it also holds close analogues and randomly drawn sequences.
We use 0.04 as the dividing line for PBM E-score: on or above the line is label 1, below is label 0.

[
  {
    "inputSequence": "CTGAAATC",
    "classAssignment": "label 0"
  },
  {
    "inputSequence": "CCATATCC",
    "classAssignment": "label 0"
  },
  {
    "inputSequence": "CAAACCCA",
    "classAssignment": "label 1"
  },
  {
    "inputSequence": "CAAACCCG",
    "classAssignment": "label 0"
  },
  {
    "inputSequence": "GAACCCAA",
    "classAssignment": "label 0"
  },
  {
    "inputSequence": "GCCAAAGA",
    "classAssignment": "label 0"
  },
  {
    "inputSequence": "AACCCCCG",
    "classAssignment": "label 0"
  },
  {
    "inputSequence": "CTGAAAAC",
    "classAssignment": "label 0"
  },
  {
    "inputSequence": "ACCAGTAC",
    "classAssignment": "label 0"
  },
  {
    "inputSequence": "AAACCCAT",
    "classAssignment": "label 1"
  },
  {
    "inputSequence": "AGTTGACG",
    "classAssignment": "label 0"
  },
  {
    "inputSequence": "CTGAAACA",
    "classAssignment": "label 1"
  },
  {
    "inputSequence": "GGCCACCA",
    "classAssignment": "label 1"
  },
  {
    "inputSequence": "GAACCCGA",
    "classAssignment": "label 0"
  },
  {
    "inputSequence": "ATAACTAT",
    "classAssignment": "label 1"
  },
  {
    "inputSequence": "AGAGGGAG",
    "classAssignment": "label 0"
  },
  {
    "inputSequence": "AGGAAACC",
    "classAssignment": "label 0"
  },
  {
    "inputSequence": "CATGGGAA",
    "classAssignment": "label 0"
  },
  {
    "inputSequence": "GAAACCCA",
    "classAssignment": "label 1"
  },
  {
    "inputSequence": "AAACCCCG",
    "classAssignment": "label 1"
  },
  {
    "inputSequence": "TAACCCGA",
    "classAssignment": "label 0"
  },
  {
    "inputSequence": "AAACCCCC",
    "classAssignment": "label 0"
  }
]

###

biological target: Ste12 (UniProt P13574); experiment: PBM E-score (8-mer binding enrichment) (E-score (-0.5 to 0.5)); higher = stronger / more preferred TF binding; details: protein concentration: 200 nM; construct: GST-DNA-binding domain
Whole data set: some 33,000 sequences, median “E-score (-0.5 to 0.5)” near -0.01, cut for the highest 2% near 0.26. The sample as a whole holds a higher share of the highest values than the screen did.

[
  {
    "inputSequence": "AAACAAAC",
    "PBM E-score": 0.263
  },
  {
    "inputSequence": "GGCAGCCC",
    "PBM E-score": -0.142
  },
  {
    "inputSequence": "TATTAATA",
    "PBM E-score": 0.336
  },
  {
    "inputSequence": "CATTAGTA",
    "PBM E-score": 0.071
  },
  {
    "inputSequence": "GATTAATA",
    "PBM E-score": 0.246
  },
  {
    "inputSequence": "AAACAAAT",
    "PBM E-score": 0.28
  },
  {
    "inputSequence": "AATTAGTA",
    "PBM E-score": 0.263
  },
  {
    "inputSequence": "CATTAATA",
    "PBM E-score": 0.251
  },
  {
    "inputSequence": "AAACAGTT",
    "PBM E-score": 0.245
  },
  {
    "inputSequence": "ACCCAAAC",
    "PBM E-score": 0.285
  },
  {
    "inputSequence": "AAACAAAA",
    "PBM E-score": 0.225
  }
]

Entry source: the supplement of paper PMC3334620
